Substrate: O=C(O)C(=O)O
Experiment: purified protein
Settings: pH 4.2 (optimum), 52 mM sodium acetate, 140 mM NaCl, 37 °C, potassium oxalate 0-150 mM, Mn enzyme
Below, each entry is listed with its recorded kcat/Km.

Protein	kcat/Km [M⁻¹ s⁻¹]
Oxalate decarboxylase (OxDC) (Bacillus subtilis subsp. subtilis str. 168; I191F) (protein) MKKQNDIPQPIRGDKGATVKIPRNIERDRQNPDMLVPPETDHGTVSNMKFSFSDTHNRLEKGGYAREVTVRELPISENLASVNMRLKPGAIRELHWHKEAEWAYMIYGSARVTIVDEKGRSFIDDVGEGDLWYFPSGLPHSIQALEEGAEFLLVFDDGSFSENSTFQLTDWLAHTPKEVIAANFGVTKEEFSNLPGKEKYIFENQLPGSLKDDIVEGPNGEVPYPFTYRLLEQEPIESEGGKVYIADSTNFKVSKTIASALVTVEPGAMRELHWHPNTHEWQYYISGKARMTVFASDGHARTFNYQAGDVGYVPFAMGHYVENIGDEPLVFLEIFKDDHYADVSLNQWLAMLPETFVQAHLDLGKDFTDVLSKEKHPVVKKKCSK	14000
Oxalate decarboxylase (OxDC) (Bacillus subtilis subsp. subtilis str. 168; Y244R) (protein) MKKQNDIPQPIRGDKGATVKIPRNIERDRQNPDMLVPPETDHGTVSNMKFSFSDTHNRLEKGGYAREVTVRELPISENLASVNMRLKPGAIRELHWHKEAEWAYMIYGSARVTIVDEKGRSFIDDVGEGDLWYFPSGLPHSIQALEEGAEFLLVFDDGSFSENSTFQLTDWLAHTPKEVIAANFGVTKEEISNLPGKEKYIFENQLPGSLKDDIVEGPNGEVPYPFTYRLLEQEPIESEGGKVRIADSTNFKVSKTIASALVTVEPGAMRELHWHPNTHEWQYYISGKARMTVFASDGHARTFNYQAGDVGYVPFAMGHYVENIGDEPLVFLEIFKDDHYADVSLNQWLAMLPETFVQAHLDLGKDFTDVLSKEKHPVVKKKCSK	19000
Oxalate decarboxylase (OxDC) (Bacillus subtilis subsp. subtilis str. 168; H279D/I191F) (protein) MKKQNDIPQPIRGDKGATVKIPRNIERDRQNPDMLVPPETDHGTVSNMKFSFSDTHNRLEKGGYAREVTVRELPISENLASVNMRLKPGAIRELHWHKEAEWAYMIYGSARVTIVDEKGRSFIDDVGEGDLWYFPSGLPHSIQALEEGAEFLLVFDDGSFSENSTFQLTDWLAHTPKEVIAANFGVTKEEFSNLPGKEKYIFENQLPGSLKDDIVEGPNGEVPYPFTYRLLEQEPIESEGGKVYIADSTNFKVSKTIASALVTVEPGAMRELHWHPNTDEWQYYISGKARMTVFASDGHARTFNYQAGDVGYVPFAMGHYVENIGDEPLVFLEIFKDDHYADVSLNQWLAMLPETFVQAHLDLGKDFTDVLSKEKHPVVKKKCSK	22000
Oxalate decarboxylase (OxDC) (Bacillus subtilis subsp. subtilis str. 168; H279D/T263E) (protein) MKKQNDIPQPIRGDKGATVKIPRNIERDRQNPDMLVPPETDHGTVSNMKFSFSDTHNRLEKGGYAREVTVRELPISENLASVNMRLKPGAIRELHWHKEAEWAYMIYGSARVTIVDEKGRSFIDDVGEGDLWYFPSGLPHSIQALEEGAEFLLVFDDGSFSENSTFQLTDWLAHTPKEVIAANFGVTKEEISNLPGKEKYIFENQLPGSLKDDIVEGPNGEVPYPFTYRLLEQEPIESEGGKVYIADSTNFKVSKTIASALVEVEPGAMRELHWHPNTDEWQYYISGKARMTVFASDGHARTFNYQAGDVGYVPFAMGHYVENIGDEPLVFLEIFKDDHYADVSLNQWLAMLPETFVQAHLDLGKDFTDVLSKEKHPVVKKKCSK	22000

The measured values listed here are drawn from paper PMC11966277.
